# assay_explanation: Tmax in rat at 30 mg/kg, po
# Type: ADME, organism-based
# Parameters: dose 30 mg/kg, route oral
# experimental_context: in vivo
measured_attribute: Tmax (h)
Response body: numeric value in h, unit text excluded.

Can you look up the measured Tmax of `Cc1c(C(C)(C)C)s/c(=N\C(=O)c2cccc(C(F)(F)F)c2)n1CC1CC1` for me? 2.67

----------
# assay_explanation: Oral bioavailability in rat at 3 mg/kg, po
# Assay type: ADME, organism-based
# experimental_context: in vivo
measured_attribute: bioavailability

Would you mind telling me what bioavailability value was observed for `Cc1c(C(C)(C)C)s/c(=N\C(=O)c2cccc(C(F)(F)F)c2)n1CC1CC1` ? 52%

----------
# target_entity: Cannabinoid receptor 2 (Homo sapiens, UniProt P34972)
# Sequence (P34972 whole entry): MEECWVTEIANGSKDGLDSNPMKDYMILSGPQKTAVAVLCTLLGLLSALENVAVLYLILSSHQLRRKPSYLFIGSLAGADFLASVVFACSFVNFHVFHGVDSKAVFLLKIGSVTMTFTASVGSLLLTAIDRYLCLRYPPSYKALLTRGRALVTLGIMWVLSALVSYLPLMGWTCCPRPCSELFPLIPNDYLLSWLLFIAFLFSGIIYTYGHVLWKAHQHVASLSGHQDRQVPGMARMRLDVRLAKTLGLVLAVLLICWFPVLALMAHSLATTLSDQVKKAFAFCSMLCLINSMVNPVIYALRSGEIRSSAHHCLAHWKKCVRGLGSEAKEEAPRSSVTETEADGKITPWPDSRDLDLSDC
# assay_explanation: Displacement of [3H]CP-55940 form human CB2 receptor expressed in CHO cells
Exercise: for every item that follows, state its recorded IC50.
Enter your answer as a number in nM; do not include the unit.

So what IC50 did `COc1ccc(C(F)(F)F)cc1C(=O)/N=c1\sc(C(C)(C)C)c(C)n1CC1CC1` get with Cannabinoid receptor 2 (Homo sapiens, UniProt P34972)? 1.2

Please tell me: IC50 of `CCOC(=O)c1s/c(=N\C(=O)c2cccc(C(F)(F)F)c2)n(CC2CC2)c1C` , system Cannabinoid receptor 2 (Homo sapiens, UniProt P34972)? 110

For Cannabinoid receptor 2 (Homo sapiens, UniProt P34972), provide IC50 of `Cc1c(C(C)(C)C)s/c(=N\C(=O)c2cccc(C(F)(F)F)c2)n1CC1CC1` please. 13

# query: IC50 | item `Cc1c(C(C)(C)C)s/c(=N\C(=O)c2cccc(C(F)(F)F)c2Cl)n1CC1CC1` | system: Cannabinoid receptor 2 (Homo sapiens, UniProt P34972) 0.41

What reported IC50 corresponds to `Cc1c(C(C)(C)C)s/c(=N\C(=O)c2cccc(Br)c2)n1CC1CC1` on Cannabinoid receptor 2 (Homo sapiens, UniProt P34972)? 1.2

Given the entry `Cc1cccc(C(=O)/N=c2\sc(C(C)(C)C)c(C)n2CC2CC2)c1` , what IC50 was observed with Cannabinoid receptor 2 (Homo sapiens, UniProt P34972)? 22

Which measured IC50 belongs to `COCCn1c(C)c(C(C)(C)C)s/c1=N\C(=O)c1cccc(C(F)(F)F)c1` , tested on Cannabinoid receptor 2 (Homo sapiens, UniProt P34972)? 10

Param readout= IC50; system= Cannabinoid receptor 2 (Homo sapiens, UniProt P34972); entry= `CCCn1c(C)c(C(C)(C)C)s/c1=N\C(=O)c1cccc(C(F)(F)F)c1` ; returns value. 46

Item `Cc1c(C(=O)N(C)C)s/c(=N\C(=O)c2cccc(C(F)(F)F)c2)n1CC1CC1` with Cannabinoid receptor 2 (Homo sapiens, UniProt P34972) - IC50? 1000

Provide the documented IC50 with Cannabinoid receptor 2 (Homo sapiens, UniProt P34972) as the system for `Cc1c(C(C)(C)C)s/c(=N\C(=O)c2cccc(Cl)c2)n1CC1CC1` 20

----------
# assay_explanation: AUC (0 to 24 hrs) in rat at 10 mg/kg, po
# Assay type: ADME, organism-based
# Set-up: time < 24 hr, dose 10 mg/kg, route oral
# experimental_context: plasma
measured_attribute: AUC(0-t) at 24 h (ng·h/mL)
Form entry: value (ng·h/mL) — number only.

Give the measured AUC(0-t) at 24 h of `COc1ccc(C(F)(F)F)cc1C(=O)/N=c1\sc(C(C)(C)C)c(C)n1CC1CC1` . 1120

Recorded AUC(0-t) at 24 h of `Cc1c(C(C)(C)C)s/c(=N\C(=O)c2cccc(C(F)(F)F)c2)n1CC1CC1` , please. 2050

----------
Consider the following compounds; for each one, report its pIC50.
# target_entity: Cannabinoid receptor 2 (Homo sapiens, UniProt P34972)
# assay_explanation: Displacement of [3H]CP-55940 form human CB2 receptor expressed in CHO cells
Please express pIC50 as -log10 of the molar concentration.

// query pIC50 value for entry `Cc1c(C(C)(C)C)s/c(=N\C(=O)c2ccccc2)n1CC1CC1` 6.59

I'd like to know its pIC50. The compound in question is `Cc1c(C(C)(C)C)s/c(=N\C(=O)c2ccc(Cl)c(C(F)(F)F)c2)n1CC1CC1` 6.64

Given the entry `Cc1c(C(C)(C)C)s/c(=N\C(=O)c2cccc(N(C)C)c2)n1CC1CC1` , report its measured pIC50. 7.77

So what's the measured pIC50 for this one? `Cc1c(C(C)C)s/c(=N\C(=O)c2cccc(C(F)(F)F)c2)n1CC1CC1` 7.54

Which pIC50 is listed for `Cc1c(C(C)(C)C)s/c(=N\C(=O)c2cc(C(F)(F)F)ccc2N(C)C)n1CC1CC1` ? 8.03

----------
# target_entity: Cannabinoid receptor 2 (Homo sapiens)
# assay_explanation: Displacement of [3H]CP-55940 form human CB2 receptor expressed in CHO cells
Hi there, I'd appreciate the recorded IC50 for every entry that follows.
The reply should contain only the number, in µM.

// lookup IC50 for `COc1cccc(C(=O)/N=c2\sc(C(C)(C)C)c(C)n2CC2CC2)c1` 0.024

What IC50 value was documented for this compound, `Cc1ccc(C(F)(F)F)cc1C(=O)/N=c1\sc(C(C)(C)C)c(C)n1CC1CC1` ? 0.0021

# get_value(readout='IC50', item= `Cc1s/c(=N\C(=O)c2cccc(C(F)(F)F)c2)n(CC2CC2)c1C` ) 0.025

Fill blank: measured IC50 of the compound `Cc1c(C(C)(C)C)s/c(=N\C(=O)c2cccc(C(F)(F)F)c2)n1C` is ____. 0.22

I'd like to know its IC50. The compound in question is `CCn1c(C)c(C(C)(C)C)s/c1=N\C(=O)c1cccc(C(F)(F)F)c1` 0.074

May I ask what IC50 has been recorded for `Cc1c(C(C)(C)C)s/c(=N\C(=O)c2cc(C(F)(F)F)ccc2Cl)n1CC1CC1` ? 0.0021

What measured IC50 goes with `Cc1c(C(C)(C)C)s/c(=N\C(=O)c2cccc(OC(F)(F)F)c2)n1CC1CC1` ? 0.0057

----------
# target_entity: UniProtKB P34972
# assay_explanation: Efficacy at human CB2 receptor expressed in CHO cells by [35S]GTP-gamma-S binding assay relative to CP-55940
# Format: functional, cell-based
Assignment: determine reported Emax for the given molecules.
Field: value (include unit after the number)

Looking for the measured Emax of `Cc1c(C(C)(C)C)s/c(=N\C(=O)c2cc(C(F)(F)F)ccc2F)n1CC1CC1` , can you help? 85%

Report Emax for `Cc1c(C(C)(C)C)s/c(=N\C(=O)c2cc(C(F)(F)F)ccc2Cl)n1CC1CC1` please. 95%

Quick one: Emax of `CCOCCn1c(C)c(C(C)(C)C)s/c1=N\C(=O)c1cccc(C(F)(F)F)c1` ? 45%

Request the reported Emax associated with `Cc1ccc(C(F)(F)F)cc1C(=O)/N=c1\sc(C(C)(C)C)c(C)n1CC1CC1` 99%

Quick one: Emax of `COCCn1c(C)c(C(C)(C)C)s/c1=N\C(=O)c1cccc(C(F)(F)F)c1` ? 59%

Please look up its Emax: `Cc1c(C(C)(C)C)s/c(=N\C(=O)c2cc(C(F)(F)F)ccc2N(C)C)n1CC1CC1` 89%

Which value of Emax has been reported for `COc1ccc(C(F)(F)F)cc1C(=O)/N=c1\sc(C(C)(C)C)c(C)n1CC1CC1` in the records? 100%

Sample `Cc1c(C(C)(C)C)s/c(=N\C(=O)c2cccc(OC(F)(F)F)c2)n1CC1CC1` — what was its Emax? 72%

May I ask what Emax has been recorded for `Cc1c(C(C)(C)C)s/c(=N\C(=O)c2ccccc2)n1CC1CC1` ? 100%

Need Emax of `Cc1c(C(C)(C)C)s/c(=N\C(=O)c2cccc(Br)c2)n1CC1CC1` , thanks. 96%

----------
# assay_explanation: Cmax in rat at 10 mg/kg, po
# Format: ADME, organism-based
# Design: dose 10 mg/kg, route oral
# experimental_context: in vivo
measured_attribute: Cmax
Please answer using a numeric value trailed by its unit.

Look up Cmax: `Cc1c(C(C)(C)C)s/c(=N\C(=O)c2cccc(C(F)(F)F)c2)n1CC1CC1` 223 ng/mL

Return reported Cmax; argument: `COc1ccc(C(F)(F)F)cc1C(=O)/N=c1\sc(C(C)(C)C)c(C)n1CC1CC1` 148 ng/mL

----------
# assay_explanation: Tmax in rat at 3 mg/kg, po
# Type: ADME, organism-based
# Set-up: dose 3 mg/kg, route oral
# experimental_context: in vivo
measured_attribute: Tmax (h)
Note: unit h is implicit; provide only the numeric part.

GET /values?readout=Tmax&item= `Cc1c(C(C)(C)C)s/c(=N\C(=O)c2cccc(C(F)(F)F)c2)n1CC1CC1` 1.67

Values from ChEMBL document CHEMBL1140512
